Test system: MDA-MB-231 triple-negative breast cancer cells
Test Description: MTT cytotoxicity assay, MDA-MB-231
Assay type: cell-based, human
Test Conditions: Homo sapiens, MDA-MB-231, MTT, mean ± SD, read-out: Cytotoxic activity IC50, MDA-MB-231
Measured Endpoint: pIC50
Scale note: pIC50 = -log10(concentration in M).

In [3]: df
Out[3]:
                                   molecule                              assay_system  measured_number
0  COc1ccc(NS(=O)(=O)CCNC(=O)c2ccccc2)cc1 [Compound 13]  MDA-MB-231 triple-negative breast cancer cells             4.12
1  NS(=O)(=O)CCNC(=O)c1ccccc1 [Compound 9, N-(2-sulfamoylethyl)benzamide]  MDA-MB-231 triple-negative breast cancer cells             4.00
2  COc1ccc(NS(=O)(=O)CCNC(=O)c2ccc(OC)cc2)cc1 [Compound 15]  MDA-MB-231 triple-negative breast cancer cells             4.47
3  COc1ccc(NS(=O)(=O)CCNC(=O)c2ccc(Cl)cc2)cc1 [Compound 14]  MDA-MB-231 triple-negative breast cancer cells             4.70
4  Cc1ccc(C(=O)NCCS(=O)(=O)Nc2ccccc2)cc1 [Compound 4]  MDA-MB-231 triple-negative breast cancer cells             4.05

Record lookup: for MDA-MB-231 triple-negative breast cancer cells, what pIC50 belongs to COc1ccc(C(=O)NCCS(=O)(=O)Nc2ccccc2)cc1 [Compound 3] ? 3.96

Consider next the molecule O=C(NCCS(=O)(=O)Nc1ccccc1)c1ccc(Cl)cc1 [Compound 2] in the same way. 4.00

Consider next the molecule Cc1ccc(C(=O)NCCS(=O)(=O)N2CCOCC2)cc1 [Compound 8] in the same way. 4.09

====

Entries and their melting point values follow.

// solved cases for melting point follow
>>> print(df.to_string())
                                   compound             result
0  COc1ccc(C(=O)NCCS(N)(=O)=O)cc1 [Compound 11, 4-Methoxy-N-(2-sulfamoylethyl)benzamide]      176 to 177 °C
1    O=C(NCCS(=O)(=O)Nc1ccccc1)c1ccc(Cl)cc1  143.8 to 144.8 °C
2  COc1ccc(NS(=O)(=O)CCNC(=O)c2ccc(Cl)cc2)cc1      160 to 161 °C
3  COc1ccc(NS(=O)(=O)CCNC(=O)c2ccc(C)cc2)cc1      127 to 128 °C
4  Cc1ccc(C(=O)NCCS(N)(=O)=O)cc1 [Compound 12, 4-Methyl-N-(2-sulfamoylethyl)benzamide]      181 to 182 °C
5    COc1ccc(NS(=O)(=O)CCNC(=O)c2ccccc2)cc1      110 to 111 °C
6    COc1ccc(C(=O)NCCS(=O)(=O)Nc2ccccc2)cc1  121.3 to 122.3 °C
7  O=C(NCCS(=O)(=O)Nc1ccccc1)c1ccccc1 [Compound 1, N-(2-(N-phenylsulfamoyl)ethyl)benzamide]  123.7 to 124.7 °C

If you can, please state the reported melting point value of COc1ccc(NS(=O)(=O)CCNC(=O)c2ccc(OC)cc2)cc1 . 112 to 113 °C

Consider next the compound Cc1ccc(C(=O)NCCS(=O)(=O)Nc2ccccc2)cc1 in the same way. 149.7 to 150.7 °C

Consider next the compound NS(=O)(=O)CCNC(=O)c1ccccc1 [Compound 9, N-(2-sulfamoylethyl)benzamide] in the same way. 162 to 163 °C

Consider next the compound O=C(NCCS(=O)(=O)N1CCOCC1)c1ccccc1 [Compound 5, N-(2-(morpholinosulfonyl)ethyl)benzamide] in the same way. 107 to 108 °C

Consider next the compound NS(=O)(=O)CCNC(=O)c1ccc(Cl)cc1 [Compound 10, 4-Chloro-N-(2-sulfamoylethyl)benzamide] in the same way. 158 to 159 °C

Consider next the compound O=C(NCCS(=O)(=O)N1CCOCC1)c1ccc(Cl)cc1 in the same way. 162 to 163 °C

Consider next the compound COc1ccc(C(=O)NCCS(=O)(=O)N2CCOCC2)cc1 in the same way. 183.5 to 184.5 °C

Consider next the compound Cc1ccc(C(=O)NCCS(=O)(=O)N2CCOCC2)cc1 in the same way. 174.2 to 175.2 °C
